Assay: Permeability of compound at pH 7.4 by PAMPA assay
Type: ADME
Conditions: read-out: permeability
Measured Quantity: Papp (×10⁻⁶ cm/s)

* CCc1cccc(CC)c1-n1c(CC2CC2)c(C(=O)N2CCNCC2)cc(-c2nc(-c3ccc(Cl)cc3)cs2)c1=O | 43
* CCc1cccc(CC)c1-n1c(C=C(C)C)c(C(=O)N2CCNC(=O)C2)cc(-c2nc(-c3ccc(Cl)cc3)cs2)c1=O | 275
* CCc1cccc(CC)c1-n1c(C=C(C)C)c(C(=O)N2CCNCC2)cc(-c2nc(-c3ccc(Cl)cc3)cs2)c1=O | 225
* CCc1cccc(CC)c1-n1c(CC(C)C)c(C(=O)N2CCNCC2)cc(-c2nc(-c3ccc(Cl)cc3)cs2)c1=O | 16
* CCc1cccc(CC)c1-n1c(C=C(C)C)c(C(=O)N2CCNCC2C)cc(-c2nc(-c3ccc(Cl)cc3)cs2)c1=O (configuration not stated) | 40
* CCc1cccc(CC)c1-n1c(C=C(C)C)c(C(=O)N2C3CCC2CNC3)cc(-c2nc(-c3ccc(Cl)cc3)cs2)c1=O | 99

I. CCCc1c(C(=O)N2CCNCC2)cc(-c2nc(-c3ccc(Cl)cc3)cs2)c(=O)n1-c1c(CC)cccc1CC
II. CCc1cccc(CC)c1-n1c(C=C(C)C)c(C(=O)N2CCNC3(CC3)C2)cc(-c2nc(-c3ccc(Cl)cc3)cs2)c1=O
III. CCc1ccc(OC)cc1-n1c(C=C(C)C)c(C(=O)N2CCNCC2)cc(-c2nc(-c3ccc(Cl)cc3)cs2)c1=O
IV. CCc1cccc(CC)c1-n1c(CC2CCNC2)c(C(=O)N2CCNCC2)cc(-c2nc(-c3ccc(Cl)cc3)cs2)c1=O (configuration not stated)
q: Sequence the entries by Papp, beginning with the highest number. Provide your answer as the labels ordered per the instruction.
a: III, I, II, IV

* * *

Molecular target: Isocitrate dehydrogenase [NADP] cytoplasmic (Homo sapiens, UniProt O75874, R132H)
Sequence (O75874 2-414 R132H limits assumed): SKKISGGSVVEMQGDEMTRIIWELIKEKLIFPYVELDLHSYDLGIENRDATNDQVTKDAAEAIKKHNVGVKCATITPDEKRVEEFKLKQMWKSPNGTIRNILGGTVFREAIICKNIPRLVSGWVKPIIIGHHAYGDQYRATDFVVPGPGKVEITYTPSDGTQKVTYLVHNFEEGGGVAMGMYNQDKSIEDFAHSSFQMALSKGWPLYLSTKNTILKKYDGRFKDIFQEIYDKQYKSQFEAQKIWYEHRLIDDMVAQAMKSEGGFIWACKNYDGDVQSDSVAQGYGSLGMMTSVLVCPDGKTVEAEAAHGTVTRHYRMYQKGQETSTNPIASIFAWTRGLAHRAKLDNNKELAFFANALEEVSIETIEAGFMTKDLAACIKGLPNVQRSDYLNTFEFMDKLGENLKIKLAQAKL
Assay: Inhibition of IDH1 R132H mutant (unknown origin) assessed as reduction in NADPH consumption using alpha-KG as substrate incubated for 5 mins by diaphorase/resazurin-coupled system
pIC50: −log10 of the molar value.
Measured Quantity: pIC50

• CCc1cccc(CC)c1-n1c(C)c(C(=O)NCCN)cc(-c2nc(-c3ccc(Cl)cc3)cs2)c1=O = 6.42

I. CCc1cccc(CC)c1-n1c(C)c(C(=O)NCCCNC)cc(-c2nc(-c3ccc(Cl)cc3)cs2)c1=O
II. CC(C)=Cc1c(C(=O)N2CCNCC2)cc(-c2nc(-c3ccc(Cl)cc3)cs2)c(=O)n1-c1ccccc1
q: Param metric = pIC50; output whichever of I , II has the minimum value. Could you answer with the label of the item you picked?
a: I
(I: 6.00, II: 6.48)

* * *

Test: Metabolic stability in rat liver microsomes assessed as half life incubated for 15 mins by high resolution LC/MS analysis
Assay type: ADME, Microsome
Conditions: 0.25 h
Measured Quantity: t1/2 (min)

* CCc1cccc(CC)c1-n1c(CC2CC2)c(C(=O)N2CCNCC2)cc(-c2nc(-c3ccc(Cl)cc3)cs2)c1=O | 17
* CCc1cccc(CC)c1-n1c(C=C(C)C)c(C(=O)N2C3CCC2CNC3)cc(-c2nc(-c3ccc(Cl)cc3)cs2)c1=O | 9

P. CCc1cccc(CC)c1-n1c(C=C(C)C)c(C(=O)N2CCNC3(CC3)C2)cc(-c2nc(-c3ccc(Cl)cc3)cs2)c1=O
Q. CCc1cccc(CC)c1-n1c(C=C(C)C)c(C(=O)N2CCNC(=O)C2)cc(-c2nc(-c3ccc(Cl)cc3)cs2)c1=O
q: Which has the higher t1/2, P or Q ? Could you answer with the label of the item you picked?
a: P
